Property: pIC50; scope: individual molecules
target: Zcchc11 enzyme (Homo sapiens); construct: made in house; host or cells: HEK293 cells (Zcchc11); E. coli Rosetta II (LIN28A); assay: TUTase assay (Zcchc11 assay, Lin28a-dependent polyuridylation of pre-let-7); format: biochemical; settings: Lin28a-dependent Zcchc11 (Z11) TUTase assay; read-out: Potency Lin28a-dep Z11 IC50
Sequence (Q5TAX3 212-1420): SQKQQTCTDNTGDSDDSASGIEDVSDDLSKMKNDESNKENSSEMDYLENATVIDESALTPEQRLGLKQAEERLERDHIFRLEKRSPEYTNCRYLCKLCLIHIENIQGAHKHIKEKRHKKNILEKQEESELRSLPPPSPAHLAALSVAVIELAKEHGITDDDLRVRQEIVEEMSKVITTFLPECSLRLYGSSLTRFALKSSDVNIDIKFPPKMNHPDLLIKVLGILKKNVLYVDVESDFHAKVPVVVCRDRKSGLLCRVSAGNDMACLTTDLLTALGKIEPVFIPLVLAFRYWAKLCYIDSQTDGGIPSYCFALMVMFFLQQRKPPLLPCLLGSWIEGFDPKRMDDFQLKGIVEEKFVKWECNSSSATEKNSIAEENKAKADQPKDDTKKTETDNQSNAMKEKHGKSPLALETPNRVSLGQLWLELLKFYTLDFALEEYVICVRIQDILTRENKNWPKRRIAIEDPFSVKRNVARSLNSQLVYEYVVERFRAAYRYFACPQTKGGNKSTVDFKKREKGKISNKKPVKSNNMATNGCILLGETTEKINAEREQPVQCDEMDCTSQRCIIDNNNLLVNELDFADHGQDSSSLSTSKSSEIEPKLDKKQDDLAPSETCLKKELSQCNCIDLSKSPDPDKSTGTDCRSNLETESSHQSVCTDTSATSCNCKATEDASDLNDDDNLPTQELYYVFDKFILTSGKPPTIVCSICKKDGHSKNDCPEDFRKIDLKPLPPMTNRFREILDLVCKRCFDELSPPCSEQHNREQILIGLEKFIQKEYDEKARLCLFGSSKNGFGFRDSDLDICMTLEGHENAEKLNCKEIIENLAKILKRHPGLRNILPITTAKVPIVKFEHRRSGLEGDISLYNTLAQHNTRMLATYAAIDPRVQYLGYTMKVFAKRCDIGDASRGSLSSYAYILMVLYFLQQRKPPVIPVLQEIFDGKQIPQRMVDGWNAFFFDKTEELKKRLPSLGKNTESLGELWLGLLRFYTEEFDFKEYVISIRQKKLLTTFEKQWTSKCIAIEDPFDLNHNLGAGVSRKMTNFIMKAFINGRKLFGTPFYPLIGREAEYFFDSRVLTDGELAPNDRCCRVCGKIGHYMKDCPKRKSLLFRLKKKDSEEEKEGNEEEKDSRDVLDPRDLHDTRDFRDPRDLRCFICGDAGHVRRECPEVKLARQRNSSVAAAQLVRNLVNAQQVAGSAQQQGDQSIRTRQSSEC
pIC50: −log10 of the molar value.

Check out these entries, answers already filled in.
molecule | measured_target | pIC50
CC(C)(C)OC(=O)N1CC(c2ccc(-n3cc(C(=O)O)c(=O)c4cc(Cl)c(N5CCC[C@@H]5COc5ncccc5Cl)cc43)cn2)C1 | Zcchc11 enzyme (Homo sapiens) | ≥ 6.00
CN1CCn2nc(-n3cc(C(=O)O)c(=O)c4cc(Cl)c(N5CCC[C@@H]5COc5ncccc5Cl)cc43)cc2C1 | Zcchc11 enzyme (Homo sapiens) | ≥ 6.00
CN(C)C1CN(c2ccc(-n3cc(C(=O)O)c(=O)c4cc(Cl)c(N5CCC[C@@H]5CCc5ccccn5)cc43)cn2)C1 | Zcchc11 enzyme (Homo sapiens) | 5.00 to 6.00
Cc1cccnc1OC[C@H]1CCCN1c1cc2c(cc1Cl)c(=O)c(C(=O)O)cn2C1(C)CCC1 | Zcchc11 enzyme (Homo sapiens) | 5.00 to 6.00
Nc1cnc(-n2cc(C(=O)O)c(=O)c3cc(Cl)c(N4CCC[C@@H]4COc4ncccc4Cl)cc32)cn1 | Zcchc11 enzyme (Homo sapiens) | ≥ 6.00

Would you kindly look at the next entry?
Output pIC50 of CC(c1ccccc1)n1cc(C(=O)O)c(=O)c2cc(Cl)c(N3CCC[C@@H]3COc3ncccc3Cl)cc21 (stereo partly drawn)
5.00 to 6.00

The measured values listed here are drawn from patent US12662491B2.
